Known viability of a selection of compounds
- ASSAY_INFO: growth suppression of beta-catenin knockout HCT116, pilot screen, human colon tumor cells (AID 823);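 further: 0% = wells killed by 20 µM Hyamine and 100% = untreated DMSO cell wells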
- CONDITION_LABEL: CellTiter-Glo, 60 h, at 10 µM, active compounds read low
Records with an inconclusive call do not appear.
Report the value in % with no unit label.

Report viability for COc1ccc(C(C#N)Nc2ccccc2OC)cc1 (stereo not drawn) please. 80.9

Report viability for COc1ccc(OC)c(N(CC(=O)NCc2ccccn2)S(C)(=O)=O)c1 please. 98.1

Report viability for Cc1nn(CCCC(=O)N2CCc3ccccc3C2)c(=O)c2cc3sccc3n12 please. 97

Report viability for COc1cc2c(cc1OC)CN(C(=O)C(C)(C)C)CC2 please. 105

Report viability for CCCCCCc1c(O)nc(SCC(=O)O)[nH]c1=O please. 108

Report viability for CCOC(=O)C1=C(C)NC(=O)NC1c1cn(-c2ccccc2)nc1-c1cccs1 (stereo not drawn) please. 75.2

###

Known growth inhibition of a selection of molecules
- ASSAY_INFO: OD615 S. cerevisiae growth inhibition, permissive medium, pilot counter-assay, permissive growth control for S. cerevisiae lifespan shortening project (AID 705)
- CONDITION_LABEL: OD615, 24 h, at 10 µM, active compounds read high
Report the value in % with no unit label.

See these solved cases before continuing.
MOLECULE	growth inhibition [%]
CCC(CO)N=CC1=C(O)C(C(=O)c2ccccc2)CCC1=O (centres undefined)	-10.4
CCCC(=O)c1c(NC)cc(C)oc1=O	-7.03
COC(=O)c1ccc(C2C(C(C)=O)=C(C)Nc3ncnn32)cc1 (centres undefined)	-8.45
COc1ccc(NC(=O)Nc2ccc3nccnc3c2)cc1	-13.5
COc1ccccc1C(=O)Nc1nnc(-c2ccc3c(c2)CCCC3)o1	-10.5
Cc1cc(C)nc(NS(=O)(=O)c2ccc(NC(=O)c3ccco3)cc2)n1	-5.44

Report growth inhibition for Cc1cc2oc(C(=O)Nc3cccnc3)c(C)c2cc1C please. 7.22

Report growth inhibition for Cc1ccc(N2C(=O)C(Cl)=C(NCCO)C2=O)c(C)c1 please. -4.71

Report growth inhibition for CC(=O)Nc1ccc(S(=O)(=O)n2cnc3cc(C)c(C)cc32)cc1 please. -7.58

Report growth inhibition for CCOCCn1c(COc2ccccc2)nc2ccccc21 please. -6.72

Report growth inhibition for O=C(NCc1ccccn1)c1cc2ccccn2n1 please. -2.5

Report growth inhibition for CCN1CCc2c(sc(NC(=O)c3ccc(S(=O)(=O)N4CCOCC4)cc3)c2C(N)=O)C1 please. -2.02

Report growth inhibition for Cc1ccnc(N2C(=O)c3ccccc3C2Nc2ccc3c(c2)OCCO3)c1 (centres undefined) please. -12.4

Report growth inhibition for Cc1cc(=O)c2c(C)nn(-c3ccccc3)c2[nH]1 please. -2.51

Report growth inhibition for CCc1ccc(C2CC(c3ccccc3Cl)Nc3nc(N)nn32)cc1 (centres undefined) please. 8.37

###

Known RAM network inhibition of a selection of molecules
- ASSAY_INFO: RAM signaling pathway blockade in yeast – S. cerevisiae, Pdr1DBD-CYC8 efflux-inhibited sensitized strain, primary screen (AID 1298);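 further: 0% = DMSO untreated cells without growth and 100% = 10 µM 1-NA-PP1 full growth; higher means more yeast growth rescued from 5-FOA killing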
- CONDITION_LABEL: S. cerevisiae cbk1-as DSE1-URA3 strain, 5-FOA growth OD615, 2 d; at 50 µM; active compounds read high
Report the value in % with no unit label.

See these solved cases before continuing.
MOLECULE	NUMERIC_VALUE
Cc1ccc(C2=CC(c3ccc(N(C)C)cc3)n3nnnc3N2)cc1 (stereo unspecified)	-0.47
Cc1cccc(CN2CCN(CC(=O)NCc3ccc(F)cc3)C2=O)c1	3.27
Cc1ccc(-c2ccc(CCC(=O)O)n2C(C)C)cc1	4.37
COc1c(C)cc(Br)cc1C(=O)Nc1cccc(-c2nc3ncccc3o2)c1	7.82
Cc1ccc(S(=O)(=O)N=C2SCCCS2)cc1	2.39

--- query ---
Report RAM network inhibition for CCOc1cccc(-c2nc(C(N)=O)c3[nH]c(=O)n(-c4cccc(Cl)c4)c3n2)c1O please. 2.67

###

Known viability of a selection of molecules
- ASSAY_INFO: growth suppression of beta-catenin knockout HCT116, pilot screen, human colon tumor cells (AID 823);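 further: 0% = wells killed by 20 µM Hyamine and 100% = untreated DMSO cell wells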
- CONDITION_LABEL: CellTiter-Glo, 60 h, at 10 µM, active compounds read low
Records with an inconclusive call do not appear.
Report the value in % with no unit label.

MOLECULE	viability (%)
Cn1nc(-c2ccc(Cl)cc2)c2cc(C(=O)NCc3ccco3)sc21	59.6
O=C(Cc1cccs1)NCCn1ccc2ccccc21	90.3
CC1=C(NCCc2ccccc2)CCC1=O	92
COc1ccc(-c2nc(C#N)c(NCCN(C)C)o2)cc1	101
CCn1ncc(C2=NOC(C(=O)Nc3c(C)n(C)n(-c4ccccc4)c3=O)C2)c1C (configuration not stated)	96.1
O=C(CCCOc1ccccc1)Nc1ccc2c(c1)OCCO2	102

Report viability for CCCCOc1ccccc1C1C(C(=O)OC)=CN(CC)C=C1C(=O)OC please. 73.8

Report viability for CCOC(=O)C1CCN(C(=O)CN(c2ccc(OC)cc2)S(=O)(=O)c2c(C)nn(C)c2C)CC1 please. 98.7

###

- ASSAY_INFO: viability gain of MRP-1-high H69AR cells under doxorubicin, pilot screen, MRP-1 activator project, CellTiter-Glo, duplicate (AID 807);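 further: compound pretreatment 18-22 h then 72 h combined with doxorubicin; 0% = doxorubicin alone and 100% = vehicle without doxorubicin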
- CONDITION_LABEL: H69AR viability with doxorubicin, CellTiter-Glo luminescence; at 10 µM; active compounds read high
Known viability increase of a selection of molecules
Report the value in % with no unit label.

MOLECULE	RESULT_UNITS	NUMERIC_VALUE
Cc1cc(C(=O)NCC2CCCO2)n(-c2ccccc2)n1 (configuration not stated)	%	-1.22
COc1ccc(CC(=O)N2CCN=C2SC)cc1	%	1.06

Report viability increase for NC(=O)c1cc(S(=O)(=O)Nc2cccc(F)c2)co1 please. -0.8

Report viability increase for Cc1cc(C)n(S(=O)(=O)c2ccc(Cl)c(Cl)c2Cl)n1 please. -4.34

Report viability increase for Cc1nc2ccc(N)cc2s1 please. -2.73

Report viability increase for CCCn1c(CCNC(=O)c2cccs2)nc2ccccc21 please. -0.97

###

Known inhibition of a selection of compounds
- ASSAY_INFO: inhibitors of the yeast RAM network, pilot screen, dse1pr::URA3 reporter, 5-FOA selection (AID 869);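 further: 0% = DMSO wells with no growth and 100% = 10 µM 1-NA-PP1 with full growth; RAM network block rescues cells from 5-FOA so hits raise OD615 growth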
- CONDITION_LABEL: S. cerevisiae dse1pr::URA3 5-FOA growth, OD615, 2 d; at 10 µM; active compounds read high; strain carries analog-sensitive mutant Cbk1 kinase
Report the value in % with no unit label.

See these solved cases before continuing.
COMPOUND	NUMERIC_VALUE
COc1ccc(OC)c(N(CC(=O)Nc2ccc3c(c2)OCCO3)S(C)(=O)=O)c1	0.825
Cc1oc(-c2cccs2)nc1CS(=O)CC(=O)NCCc1ccccc1 (stereo not drawn)	2.6
CCc1nnc(NC(=O)CSc2nccn2-c2cc(C)cc(C)c2)s1	0.195

Report inhibition for CCn1c(=O)cc(OCC(=O)Nc2ccccc2C#N)c2ccccc21 please. 2.12

Report inhibition for CCOc1ccc(NC(=O)N2CCC(n3c(=O)[nH]c4ccccc43)CC2)cc1 please. 1.9

Report inhibition for O=C(NCc1ccc(Cl)cc1)c1cccnc1 please. 1.8

Report inhibition for CC(C)NS(=O)(=O)c1ccc(CCC(=O)NCc2ccco2)cc1 please. 1.55

###

- ASSAY_INFO: viability gain of MRP-1-high H69AR cells under doxorubicin, pilot screen, MRP-1 activator project, CellTiter-Glo, duplicate (AID 807);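 further: compound pretreatment 18-22 h then 72 h combined with doxorubicin; 0% = doxorubicin alone and 100% = vehicle without doxorubicin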
- CONDITION_LABEL: H69AR viability with doxorubicin, CellTiter-Glo luminescence; at 10 µM; active compounds read high
MEASUREMENT_NAME: viability increase (%)
Report the value in % with no unit label.

See these solved cases before continuing.
COMPOUND	viability increase / %
COc1cc(NC(=O)C2CCCN2C(=O)C2CCC(C)CC2)cc(OC)c1OC (configuration not stated)	-1.44
COc1ccc(-n2cnnc2)cc1	-2.88
O=C(CC1Oc2ccccc2NC1=O)NCc1ccccc1 (configuration not stated)	-0.93
NC(=O)c1cc(N2C(=O)C3CC=CCC3C2=O)ccc1N1CCCCC1 (configuration not stated)	0.16

Report viability increase for CN1C(=O)c2cccc(NC(=O)Cc3ccccc3)c2C1=O please. -1.47

Report viability increase for CCOC(=O)C(C)n1cnc2sc3c(c2c1=O)CCC3 (configuration not stated) please. -1.76

Report viability increase for Cc1cc(Nc2cccc(C)c2C)n2nc(C)nc2n1 please. -1.13

Report viability increase for O=c1cc(-c2ccccc2Cl)c2c([nH]1)CCC2 please. -2.8

Report viability increase for O=C(NCc1ccccn1)c1cc2ccccn2n1 please. -0.01

Report viability increase for N#CC1=C(c2ccccc2)N=P(N2CCOCC2)(N2CCOCC2)N=C1N1CCOCC1 please. 0.57

Report viability increase for COc1cc(CN2CCN(c3cccc(C)c3C)CC2)cc(Br)c1O please. -2.57

Report viability increase for CC(=O)N1C(C(=O)O)CSC1c1ccc(C)cc1 (configuration not stated) please. -0.04
